Target: T1, mfNPR1-mFc:hBNP complex (monkey; human, UniProt P16860 103-134)
T1 construct: also called monkey NPR1 complexed to BNP
Test: SPR, mAb captured, 25C
Reported Property: 100 nM Ag Bound (RU)
One number for each entry, in RU.

>>> measured_value("mAb25502 (antibody, human IgG4, V domains shown) VH: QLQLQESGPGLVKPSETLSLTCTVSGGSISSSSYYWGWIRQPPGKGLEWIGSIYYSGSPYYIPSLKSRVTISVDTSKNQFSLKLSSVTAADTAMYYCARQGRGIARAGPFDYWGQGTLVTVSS VL: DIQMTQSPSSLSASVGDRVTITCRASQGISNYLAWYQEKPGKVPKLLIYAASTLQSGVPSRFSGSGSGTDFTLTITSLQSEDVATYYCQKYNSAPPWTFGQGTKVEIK")
110

Attention now turns to another entry.
*Q* Return reported 100 nM Ag Bound (RU); argument: mAb25497 (antibody, human IgG4, V domains shown) VH: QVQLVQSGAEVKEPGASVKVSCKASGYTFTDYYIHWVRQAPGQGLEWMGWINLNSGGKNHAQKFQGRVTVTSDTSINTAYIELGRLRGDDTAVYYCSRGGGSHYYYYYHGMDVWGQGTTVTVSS VL: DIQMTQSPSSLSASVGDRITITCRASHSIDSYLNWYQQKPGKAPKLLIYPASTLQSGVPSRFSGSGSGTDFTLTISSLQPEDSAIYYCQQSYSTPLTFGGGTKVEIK
*A* 93
